Assay: kinetic solubility analysis
Format: physicochemical
Conditions: aqueous medium (not further specified)
# reported solubility; entries follow
Could you give me the number in µg/mL? Just the number is fine.

Examples from the recorded data:
Inquiry: Would you kindly share the measured solubility for Nc1cccc(S(=O)(=O)N2CCN(S(=O)(=O)c3c(F)cccc3F)CC2)c1 [compound 56] ?
Reply text: 3

Inquiry: Would you kindly share the measured solubility for COc1cc(F)c(S(=O)(=O)N2CCCN(S(=O)(=O)c3cccc(N)c3)CC2)c(F)c1 [compound 57] ?
Reply text: 15.1

More entries:
Inquiry: Would you kindly share the measured solubility for O=S(=O)(c1ccc2c(c1)OCCO2)N1CCCN(S(=O)(=O)c2c(F)cccc2F)CC1 [compound 34] ?
Reply text: 2.7
